- system: T1, human PACAP38 (human, not fully specified; C-terminal lysine is amidated; N-terminal or C-terminal biotin in the HTRF and PC-12 cell binding assays)
- T1 construct: synthetic peptide, bought; also called huPACAP (1-38)
- T1 peptide: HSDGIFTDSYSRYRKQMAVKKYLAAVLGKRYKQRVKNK
- assay details: SPR, Ab immobilised

- binder: "anti-PACAP antibody Ab10.H (antibody, V domains shown) VH: EVQLVESGGGLVQPGGSLRLSCAASGIDLNSYYMTWVRQAPGKGLEWIGFIDAGGDAYYASWAKGRFTISRDNSKNTVYLQMNSLRAEDTAVYFCARDLDLWGQGTLVTVSS VL: DAQLTQSPSTLSASVGDRVTITCQSSESVYGNYLAWFQQKPGKAPKFLIYEASKLESGVPSRFSGSGSGTEFTLTISSLQPDDFATYYCAGGDISEGVAFGGGTKVEIKR"
  value units: "s⁻¹"
  measurement qualifier: "="
  koff: "1e-05"
- binder: "anti-PACAP antibody Ab22 (antibody, human IgG1, kappa, N297A, V domains shown, full-length rabbit/human chimeric antibody; PACAP38 specific) VH: QEQLVESGGGLVQPEGSLTLTCTASGFDFSSNAMCWVRQAPGKGLEWIGSIYNADGKNYYAIWAKGRFTISRTSSTTVTLQMTSLTAADTATYFCARDFDLWGQGTLVTVSS VL: AAVLTQTPSPVSAAVGGTVTINCQSSQSVYDNDWLAWFQQKPGQPPKLLIYLTSTLASGVPSRFSGSGSGTQFTLTISGVQCDDAATYYCLGGYDEDGDTHVFGGGTEVVVKR"
  value units: "s⁻¹"
  measurement qualifier: "≤"
  koff: "1e-05"
- binder: "anti-PACAP antibody Ab12.H (antibody, human IgG1, kappa, N297A, V domains shown, humanized form of Ab12, full length) VH: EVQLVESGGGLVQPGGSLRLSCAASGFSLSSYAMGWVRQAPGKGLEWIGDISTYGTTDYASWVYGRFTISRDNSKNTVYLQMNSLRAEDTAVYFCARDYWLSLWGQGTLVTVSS VL: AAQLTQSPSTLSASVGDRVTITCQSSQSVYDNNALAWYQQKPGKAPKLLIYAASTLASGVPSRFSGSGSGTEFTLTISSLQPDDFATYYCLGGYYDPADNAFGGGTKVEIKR"
  value units: "s⁻¹"
  measurement qualifier: "≤"
  koff: "1e-05"
- binder: "anti-PACAP antibody Ab3.H (antibody, human IgG1, kappa, N297A, V domains shown, humanized form of Ab3, full length) VH: EVQLVESGGGLVQPGGSLRLSCAASGFSFSSSDYMCWVRQAPGKGLEWIGCIDAGSSGDTYFASSAKGRFTISRDNSKNTVYLQMNSLRAEDTAVYFCARHLYGSITFAFGLWGQGTLVTVSS VL: AAQMTQSPSTLSASVGDRVTITCQASQSIGSDLAWYQQKPGKAPKLLIYDASTLASGVPSRFSGSGSGTEFTLTISSLQPDDFATYYCQGTYYSSGWYTAFGGGTKVEIKR"
  value units: "s⁻¹"
  measurement qualifier: "="
  koff: 0.00014
- binder: "anti-PACAP antibody Ab15 (antibody, human IgG1, kappa, N297A, V domains shown, full-length rabbit/human chimeric antibody) VH: QSVEASGGHLVTPGTPLTLTCTVSGFSLSSAAMNWVRQAPGKGLEWIGSVDERQNKYYASWAKGRFTISRTSSTTVNLKMTSPTTEDTATYFCARGGGEFFIWGQGTLVTVSS VL: AQVLTQTPSSVSAAVGGTVTINCQSSQSVYSNNRLSWYQQKPGQPPNLLIYEASSLASGVPSRFSGSGSGTQFTLTISDLECDDAATYYCAGAYNTGIYGFGGGTEVVVKR"
  value units: "s⁻¹"
  measurement qualifier: "="
  koff: "2.7e-05"
- binder: "anti-PACAP antibody Ab4.H (antibody, human IgG1, kappa, N297A, V domains shown, humanized form of Ab4, full length) VH: EVQLVESGGGLVQPGGSLRLSCAASGFSLSSYDMSWVRQAPGKGLEWIGIINTNDDTWYASWVKGRFTISRDNSKNTLYLQMNSLRAEDTAVYYCARISDAYVFDYAYYFTLWGQGTLVTVSS VL: DIQMTQSPSTLSASVGDRVTITCLASQNIYNSLAWYQQKPGKAPKLLIYRASTLASGVPSRFSGSGSGTEFTLTISSLQPDDFATYYCQQGAGADNIGNPFGGGTKVEIKR"
  value units: "s⁻¹"
  measurement qualifier: "="
  koff: "3.2e-05"
- binder: "anti-PACAP antibody Ab16 (antibody, human IgG1, kappa, N297A, V domains shown, full-length rabbit/human chimeric antibody) VH: QSVEESGGRLVTPGTPLTLTCTVSGFSLSSAAMSWVRQAPGKGLEWIGIIDDSGNTYYASWAKARFTISKTSSTTVDLKMTSPTTEDTATYFCARGGGEFFIWGPGTLVTVSS VL: DPVLTQTPSSVSAAVGGTVTINCQSSQSVYNNKWLSWYQQKPGQSPKFLIYQASNLASGVPSRFKGSGSGTQFTLTISDLECDDGATYYCAGGYRGNVCGFGGGTEVVVKR"
  value units: "s⁻¹"
  measurement qualifier: "≤"
  koff: "1e-05"
- binder: "anti-PACAP antibody Ab1.H (antibody, human IgG1, kappa, N297A, V domains shown, humanized form of Ab1, full length) VH: EVQLVESGGGLVQPGGSLRLSCAASGFTVSSAVMNWVRQAPGKGLEWIGSIVASGTTYYASSANGRFTISRDNSKNTLYLQMNSLRAEDTAVYYCARGGGEFFIWGQGTLVTVSS VL: DIQMTQSPSTLSASVGDRVTITCQSSESVYSNYLSWYQQKPGKAPKFLIYQASNLASGVPSRFSGSGSGTEFTLTISSLQPDDFATYYCAGGYSENIVGFGGGTKVEIKR"
  value units: "s⁻¹"
  measurement qualifier: "≤"
  koff: "1e-05"
- binder: "anti-PACAP antibody Ab6 (antibody, human IgG1, kappa, N297A, V domains shown, full-length rabbit/human chimeric antibody) VH: LEQSGGGAEGGLVKPGGSLELCCKASGFSLSSTYWMCWVRQAPGKGLEWIGCIYTGSGSTDYASWVNGQFTLSRDIDQSTGCLQLNSLTVADTAMYYCTKNFDLWGPGTLVTVSS VL: AQVLTQTPSSVSAAVGGTVTINCQSSPSVYSNNYLSWFQQKPGQPPKGLIADASTLASGVPSRFKGSGSGTQFTLTISGVQCDDAAAYYCLGYYDCGSTDCHAFGGGTEVVVKR"
  value units: "s⁻¹"
  measurement qualifier: "="
  koff: "4.1e-05"
- binder: "anti-PACAP antibody Ab7 (antibody, human IgG1, kappa, N297A, V domains shown, full-length rabbit/human chimeric antibody) VH: QSVEESGGRLVTPGTPLTLTCTASGIDLSGYAMGWVRQAPGKGLEWIGDISTYGTTDYASWVNGRFTISRTSTTVTLKMTSLTTEDTATYFCARDYWLSLWGPGTLVTVSS VL: AAVLTQTPSPVSAAVGGTVTIKCQSSQSVYDNNALAWYQQKPGQPPKLLIYAASTLASGVPSRFKGSGSGTQFTLTINGVQCDDAATYYCLGGYDDPADNAFGGGTEVVVKR"
  value units: "s⁻¹"
  measurement qualifier: "≤"
  koff: "1e-05"
